- Tested on: P. falciparum 3D7 growth, pLDH absorbance
- EXPERIMENT_DESCRIPTION: blood-stage malaria parasite growth potency – strain 3D7, dose response (AID 2305)
Labelling field: enter label 1 if recorded IC50 is less than 700 nM. Enter label 0 if it equals or exceeds that cut-off.

COMPOUND: COc1cc(C(=O)NC2CC(C)(C)N(C)C(C)(C)C2)ccc1-c1nc2cc(Cl)c(Cl)cc2[nH]1
CLASS_NAME: label 0
--
COMPOUND: Cc1ccc(C)c(C2CCN(CCCCNC(=O)c3ccc(NC(=O)c4ccc(Cl)cc4)cc3)CC2)c1
CLASS_NAME: label 0
--
COMPOUND: Cc1ccccc1C1CCN(C2CCC(NC(=O)c3cc(-c4ccc(Cl)cc4)cs3)CC2)CC1 (configuration not stated)
CLASS_NAME: label 1
--
COMPOUND: Cc1nc2ccc3nc(NC(=O)c4ccno4)sc3c2s1
CLASS_NAME: label 1
--
COMPOUND: COc1ccc(-n2ncc(C(=O)N3CCC4(C3)C(=O)N(c3ccccc3)c3ccccc34)c2C)cc1 (configuration not stated)
CLASS_NAME: label 0
--
COMPOUND: Cc1cccc2[nH]c(-c3cccc(-c4ccc(NC(=O)c5ccc(=O)[nH]n5)cc4)c3)nc12
CLASS_NAME: label 0
--
COMPOUND: Fc1ccccc1C=NNc1ccnc2ccccc12
CLASS_NAME: label 0
--
COMPOUND: CCCCNC[C@@H](O)[C@H](Cc1ccccc1)NC(=O)c1cc(NCC)cc(N2CCCCS2(=O)=O)c1
CLASS_NAME: label 1
--
COMPOUND: O=C(/C=C/c1ccc(C(F)(F)F)cc1)NCCCCCN1CCCN(C(=O)Nc2cccc(Cl)c2)CC1
CLASS_NAME: label 0
--
COMPOUND: COc1ccc2nc(C)cc(Nc3ccc(Oc4ccc5ccccc5c4Cl)c(Cl)c3)c2c1
CLASS_NAME: label 1
--
COMPOUND: O=C(CSc1nccn1C1CCCC1)Nc1cc(C(F)(F)F)ccc1Cl
CLASS_NAME: label 1
--
COMPOUND: O=C(Nc1ccc(F)cc1)NC1CCN(CCCCCNC(=O)[C@@H]2C[C@H]2c2ccc(Cl)c(Cl)c2)CC1
CLASS_NAME: label 0
--
COMPOUND: Cc1ccc(O)cc1Nc1ccnc2cc(-c3nccs3)ccc12
CLASS_NAME: label 0
--
COMPOUND: O=c1ccccn1CCCC1CCCCN1 (configuration not stated)
CLASS_NAME: label 0
--
COMPOUND: CCOC(=O)C(=O)N1c2ccc(OCC)cc2-c2c(ssc2=S)C1(C)C
CLASS_NAME: label 1
--
COMPOUND: CC(Nc1ccc2c(c1)OCCO2)C(=O)Nc1cc(C(F)(F)F)ccc1N1CCOCC1 (configuration not stated)
CLASS_NAME: label 1
--
COMPOUND: Oc1ccc(Br)cc1C(O)CNCc1ccccc1OCc1ccccc1 (configuration not stated)
CLASS_NAME: label 1
--
COMPOUND: O=C(Nc1ccc(-c2cccc(-c3nc4ccccc4[nH]3)c2)cc1)Nc1ccc(Cl)c(Cl)c1
CLASS_NAME: label 1
--
COMPOUND: COc1ccc2cc(CNCCCCCCNCc3ccc4cc(OC)ccc4c3)ccc2c1
CLASS_NAME: label 1
--
COMPOUND: O=[N+]([O-])c1ccc2nccnc2c1
CLASS_NAME: label 0
--
COMPOUND: COc1ccc2nc3cc(Cl)ccc3c(NCCN(C)C)c2c1
CLASS_NAME: label 1
--
COMPOUND: O=C(Cc1n[nH]c(=O)c2ccccc12)Nc1cccc(C(=O)Nc2cccc(C(F)(F)F)c2)c1
CLASS_NAME: label 1
--
COMPOUND: Cc1cc(N[C@@H](CC(C)C)C(=O)NCc2cccc(F)c2)nc(Nc2ccccc2)n1
CLASS_NAME: label 0
--
COMPOUND: O=C(NCCCCCN1CCC(c2c[nH]c3ccccc23)CC1)c1ccc(-c2cccnc2)cc1
CLASS_NAME: label 0
--
COMPOUND: CC(C)(C)c1cc([N+](=O)[O-])cc(C(=O)Nc2ccccc2C(F)(F)F)c1O
CLASS_NAME: label 1
--
COMPOUND: Cn1cncc1C(=O)Nc1ccc(-c2ccc(-c3nc4ccc(C(F)(F)F)cc4[nH]3)cc2)cc1
CLASS_NAME: label 1
--
COMPOUND: COc1ccc(-c2cccc(CNC3CCN(CC4Cn5c(=O)ccc6ccc(F)c4c65)CC3)c2)cc1 (configuration not stated)
CLASS_NAME: label 0
--
COMPOUND: COc1ccc(C2N=C(N)N=C(N)N2c2ccc(Cl)cc2)cc1OC (configuration not stated)
CLASS_NAME: label 0
--
COMPOUND: COc1ccc(CNCc2ccccc2)cc1-c1ccc(S(=O)(=O)NCCN2CCCC2)c(C)c1
CLASS_NAME: label 0
--
COMPOUND: COc1ccc2nccc([C@@H](O)CN3CCC(NCc4cc5cccc(O)c5c(=O)[nH]4)CC3)c2c1
CLASS_NAME: label 1
